Molecular target: Death-associated protein kinase 3 (Homo sapiens) (UniProt O43293)
Sequence (O43293 whole entry, looked up): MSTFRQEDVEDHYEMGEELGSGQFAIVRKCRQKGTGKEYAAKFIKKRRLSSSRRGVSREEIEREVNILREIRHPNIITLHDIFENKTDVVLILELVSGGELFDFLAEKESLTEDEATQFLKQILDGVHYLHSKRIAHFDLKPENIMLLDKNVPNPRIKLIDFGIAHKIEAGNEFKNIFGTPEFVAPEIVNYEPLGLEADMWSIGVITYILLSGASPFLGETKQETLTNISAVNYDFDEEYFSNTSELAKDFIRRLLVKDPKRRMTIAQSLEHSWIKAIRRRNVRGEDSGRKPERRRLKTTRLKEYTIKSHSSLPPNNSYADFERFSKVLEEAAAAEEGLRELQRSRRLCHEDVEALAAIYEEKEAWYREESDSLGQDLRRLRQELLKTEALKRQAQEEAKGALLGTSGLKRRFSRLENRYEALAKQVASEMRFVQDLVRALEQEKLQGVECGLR
Details: at 10 µM
Give measured residual activity for each item. Keep answers brief.
Numbers only here, please. The scale is %.

Sample "Oc1c2ccccc2c2c3c(cccc13)N=N2" ; residual activity observed: 45

Sample "COc1ccc(CNc2nc(N(CCO)CCO)nc3c2ncn3C(C)C)cc1" ; residual activity observed: 92

Sample "Oc1ccc(Nc2nc(-c3ccc(Cl)cc3)cs2)cc1" ; residual activity observed: 133

Sample "O=C1c2ccccc2-[n+]2ccc3c([nH]c4ccccc43)c21" ; residual activity observed: 78

Sample "Cn1cnc2cc3c(Nc4cccc(Br)c4)ncnc3cc21" ; residual activity observed: 101

Sample "COc1cc2ncnc(N3CCN(C(=O)Nc4ccc(Oc5ccccc5)cc4)CC3)c2cc1OC" ; residual activity observed: 144

Sample "Cn1cc(/C=C2\C(=O)Nc3ccc(S(N)(=O)=O)cc32)c2ccccc21" ; residual activity observed: 90

Sample "Cc1nc2cc3nc(-c4cccs4)cnc3cc2n1C" ; residual activity observed: 102

Sample "O=C(Nc1cccc(Nc2cc(Nc3cccc(C(F)(F)F)c3)ncn2)c1)C1CC1" ; residual activity observed: 112

Sample "Oc1n[nH]c2nnc(-c3c(-c4ccccc4)nn4ccccc34)cc12" ; residual activity observed: 48

Sample "c1ccc(-c2n[nH]c3c2oc2ccccc23)cc1" ; residual activity observed: 100

Sample "Oc1ccc(-c2nc(-c3ccc(F)cc3)c(-c3ccncc3)[nH]2)cc1" ; residual activity observed: 101

Sample "CC(C)n1cnc2/c(=N/c3cccc(Cl)c3)nc(NCCO)[nH]c21" ; residual activity observed: 93

Sample O=C1Nc2ccccc2/C1=C1/Nc2ccccc2/C1=N\OCCC(O)CO (stereo not given) ; residual activity observed: 54

Sample "O=c1cc(-c2cccc3c2Sc2ccccc2S3)oc(N2CCOCC2)c1" ; residual activity observed: 99

Sample "NC(=O)c1ccc2[nH]c(-c3ccc(Oc4ccc(Cl)cc4)cc3)nc2c1" ; residual activity observed: 106

Sample "Cc1nc(-c2ccccc2)c(-c2ccncc2)o1" ; residual activity observed: 94

Sample "Cc1cc2ncc(-c3ccccc3)nc2cc1C" ; residual activity observed: 100

Sample "COc1ccc(S(=O)(=O)N(CCO)c2ccccc2CN(C)C/C=C/c2ccc(Cl)cc2)cc1" ; residual activity observed: 96

Sample "COc1cc2ncnc(Nc3ccc(NC(=O)c4ccccc4)cc3)c2cc1OC" ; residual activity observed: 84

Sample "c1ccc2c(-c3ccncc3)c[nH]c2c1" ; residual activity observed: 107

Sample "O=C1NC(=O)c2cc(Nc3ccc(F)cc3)c(Nc3ccc(F)cc3)cc21" ; residual activity observed: 99

Sample "O=[N+]([O-])c1ccc(-c2nc(-c3ccc(F)cc3)c(-c3ccncc3)[nH]2)cc1" ; residual activity observed: 102

Sample "Cc1ccc(S(=O)(=O)/C=C/C#N)cc1" ; residual activity observed: 93

Sample "COc1cc2ncc(-c3ccccc3)nc2cc1OC" ; residual activity observed: 100

###

Molecular target: Serine/threonine-protein kinase PLK3 (Homo sapiens) (UniProt Q9H4B4)
Sequence (Q9H4B4 whole entry, looked up): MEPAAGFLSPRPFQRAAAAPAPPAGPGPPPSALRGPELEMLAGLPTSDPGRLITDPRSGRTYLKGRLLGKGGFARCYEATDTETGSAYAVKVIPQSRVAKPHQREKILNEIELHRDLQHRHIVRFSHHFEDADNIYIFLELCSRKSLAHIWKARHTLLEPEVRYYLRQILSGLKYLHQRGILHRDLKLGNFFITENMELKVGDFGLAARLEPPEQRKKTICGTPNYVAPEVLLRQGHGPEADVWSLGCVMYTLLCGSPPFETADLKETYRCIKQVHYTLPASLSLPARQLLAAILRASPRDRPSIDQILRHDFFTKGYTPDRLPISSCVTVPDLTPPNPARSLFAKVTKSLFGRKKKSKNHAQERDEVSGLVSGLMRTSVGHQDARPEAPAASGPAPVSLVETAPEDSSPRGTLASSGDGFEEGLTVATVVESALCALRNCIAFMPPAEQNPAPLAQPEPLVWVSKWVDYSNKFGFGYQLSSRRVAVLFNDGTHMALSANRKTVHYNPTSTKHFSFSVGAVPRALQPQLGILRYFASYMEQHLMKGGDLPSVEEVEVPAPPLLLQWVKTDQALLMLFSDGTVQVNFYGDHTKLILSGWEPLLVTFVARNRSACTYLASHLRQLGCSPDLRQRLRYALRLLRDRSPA
Details: at 10 µM
Description: Millipore: Percentage of residual kinase activity of PLK3 at 10uM relative to control. Control inhibitor: Wortmannin at 100.0uM. Buffer: 8 mM MOPS pH 7.0, 0.2 mM EDTA
Observable: residual activity (%)
Numbers only here, please. The scale is %.

Sample "O=C1Nc2cc(Br)ccc2/C1=C1/Nc2ccccc2/C1=N\O" ; residual activity observed: 91

Sample "O=C(Nc1cccc(Nc2cc(Nc3cccc(C(F)(F)F)c3)ncn2)c1)C1CC1" ; residual activity observed: 90

Sample "COc1cc2ncnc(Nc3ccc(NC(=O)c4ccccc4)cc3)c2cc1OC" ; residual activity observed: 97

Sample "CCC(=O)Nc1ccc2ncnc(Nc3cccc(Br)c3)c2c1" ; residual activity observed: 86

Sample "N#CCCc1ccc2c(c1)-c1[nH]c3ccc([N+](=O)[O-])cc3c1CC(=O)N2" ; residual activity observed: 82

Sample "CN(C)CCCn1cc(C2=C(c3c[nH]c4ccccc34)C(=O)NC2=O)c2ccccc21" ; residual activity observed: 104

Just for reference, ChEMBL document CHEMBL2218924 is where these values come from.
